This collection of values is drawn from patent US20200308144A1.

- Test: Stability of salt forms under accelerated conditions of heat and humidity
- Format: physicochemical
- Measurement conditions: 80° C./80% RH, 14 D
Endpoint: Assay (%)
Give bare numbers, in %.

The following compounds have reported results that may help.
compound="CC[C@H](C(=O)N1CCCC[C@H]1C(=O)O[C@H](CCc1ccc(OC)c(OC)c1)c1cccc(OCCN(C)CCN(C)CCOc2cccc([C@@H](CCc3ccc(OC)c(OC)c3)OC(=O)[C@@H]3CCCCN3C(=O)[C@@H](CC)c3cc(OC)c(OC)c(OC)c3)c2)c1)c1cc(OC)c(OC)c(OC)c1.O=S(=O)(O)O [Sulphate]" endpoint="Assay (%)" recorded_value=85.4
compound=CC[C@H](C(=O)N1CCCC[C@H]1C(=O)O[C@H](CCc1ccc(OC)c(OC)c1)c1cccc(OCCN(C)CCN(C)CCOc2cccc([C@@H](CCc3ccc(OC)c(OC)c3)OC(=O)[C@@H]3CCCCN3C(=O)[C@@H](CC)c3cc(OC)c(OC)c(OC)c3)c2)c1)c1cc(OC)c(OC)c(OC)c1.O=P(O)(O)O endpoint="Assay (%)" recorded_value=77.7
compound="CC[C@H](C(=O)N1CCCC[C@H]1C(=O)O[C@H](CCc1ccc(OC)c(OC)c1)c1cccc(OCCN(C)CCN(C)CCOc2cccc([C@@H](CCc3ccc(OC)c(OC)c3)OC(=O)[C@@H]3CCCCN3C(=O)[C@@H](CC)c3cc(OC)c(OC)c(OC)c3)c2)c1)c1cc(OC)c(OC)c(OC)c1.O=C(O)/C=C/C(=O)O [Fumarate]" endpoint="Assay (%)" recorded_value=81.2
compound=CC[C@H](C(=O)N1CCCC[C@H]1C(=O)O[C@H](CCc1ccc(OC)c(OC)c1)c1cccc(OCCN(C)CCN(C)CCOc2cccc([C@@H](CCc3ccc(OC)c(OC)c3)OC(=O)[C@@H]3CCCCN3C(=O)[C@@H](CC)c3cc(OC)c(OC)c(OC)c3)c2)c1)c1cc(OC)c(OC)c(OC)c1.Cl endpoint="Assay (%)" recorded_value=94.4

IN: Annotate the compound CC[C@H](C(=O)N1CCCC[C@H]1C(=O)O[C@H](CCc1ccc(OC)c(OC)c1)c1cccc(OCCN(C)CCN(C)CCOc2cccc([C@@H](CCc3ccc(OC)c(OC)c3)OC(=O)[C@@H]3CCCCN3C(=O)[C@@H](CC)c3cc(OC)c(OC)c(OC)c3)c2)c1)c1cc(OC)c(OC)c(OC)c1.O=S(=O)(O)c1ccccc1 with its measured Assay (%).
OUT: 90.

* * *

Record form. Attribute: Assay (%). Fill in for each entry.
- Test: Stability of salt forms under accelerated conditions of heat and humidity
- Assay type: physicochemical
- Measurement conditions: 80° C., 7 D

The following compounds have reported results that may help.
compound="CC[C@H](C(=O)N1CCCC[C@H]1C(=O)O[C@H](CCc1ccc(OC)c(OC)c1)c1cccc(OCCN(C)CCN(C)CCOc2cccc([C@@H](CCc3ccc(OC)c(OC)c3)OC(=O)[C@@H]3CCCCN3C(=O)[C@@H](CC)c3cc(OC)c(OC)c(OC)c3)c2)c1)c1cc(OC)c(OC)c(OC)c1.O=S(=O)(O)O [Sulphate]" recorded_value=95.3%
compound="CC[C@H](C(=O)N1CCCC[C@H]1C(=O)O[C@H](CCc1ccc(OC)c(OC)c1)c1cccc(OCCN(C)CCN(C)CCOc2cccc([C@@H](CCc3ccc(OC)c(OC)c3)OC(=O)[C@@H]3CCCCN3C(=O)[C@@H](CC)c3cc(OC)c(OC)c(OC)c3)c2)c1)c1cc(OC)c(OC)c(OC)c1.O=P(O)(O)O [Compound A.1]" recorded_value=94.9%
compound="CC[C@H](C(=O)N1CCCC[C@H]1C(=O)O[C@H](CCc1ccc(OC)c(OC)c1)c1cccc(OCCN(C)CCN(C)CCOc2cccc([C@@H](CCc3ccc(OC)c(OC)c3)OC(=O)[C@@H]3CCCCN3C(=O)[C@@H](CC)c3cc(OC)c(OC)c(OC)c3)c2)c1)c1cc(OC)c(OC)c(OC)c1.Cl [Compound A.2]" recorded_value=96.3%
compound="CC[C@H](C(=O)N1CCCC[C@H]1C(=O)O[C@H](CCc1ccc(OC)c(OC)c1)c1cccc(OCCN(C)CCN(C)CCOc2cccc([C@@H](CCc3ccc(OC)c(OC)c3)OC(=O)[C@@H]3CCCCN3C(=O)[C@@H](CC)c3cc(OC)c(OC)c(OC)c3)c2)c1)c1cc(OC)c(OC)c(OC)c1.O=C(O)/C=C/C(=O)O [Fumarate]" recorded_value=96.6%

API: the following record is the query input.
IN: Annotate the compound CC[C@H](C(=O)N1CCCC[C@H]1C(=O)O[C@H](CCc1ccc(OC)c(OC)c1)c1cccc(OCCN(C)CCN(C)CCOc2cccc([C@@H](CCc3ccc(OC)c(OC)c3)OC(=O)[C@@H]3CCCCN3C(=O)[C@@H](CC)c3cc(OC)c(OC)c(OC)c3)c2)c1)c1cc(OC)c(OC)c(OC)c1.O=S(=O)(O)c1ccccc1 with its measured Assay (%).
OUT: 91.5%

* * *

Record form. Attribute: Assay (%). Fill in for each entry.
- Test: Stability of salt forms under accelerated conditions of heat and humidity
- Format: physicochemical
- Measurement conditions: 25° C./60% RH, 7 D
Numbers only, in %.

compound="CC[C@H](C(=O)N1CCCC[C@H]1C(=O)O[C@H](CCc1ccc(OC)c(OC)c1)c1cccc(OCCN(C)CCN(C)CCOc2cccc([C@@H](CCc3ccc(OC)c(OC)c3)OC(=O)[C@@H]3CCCCN3C(=O)[C@@H](CC)c3cc(OC)c(OC)c(OC)c3)c2)c1)c1cc(OC)c(OC)c(OC)c1.Cl [Compound A.2]" recorded_value=97.3

API: the following record is the query input.
IN: Annotate the compound CC[C@H](C(=O)N1CCCC[C@H]1C(=O)O[C@H](CCc1ccc(OC)c(OC)c1)c1cccc(OCCN(C)CCN(C)CCOc2cccc([C@@H](CCc3ccc(OC)c(OC)c3)OC(=O)[C@@H]3CCCCN3C(=O)[C@@H](CC)c3cc(OC)c(OC)c(OC)c3)c2)c1)c1cc(OC)c(OC)c(OC)c1.O=P(O)(O)O [Compound A.1] with its measured Assay (%).
OUT: 96.2

* * *

Record form. Attribute: Assay (%). Fill in for each entry.
- Test: Stability of salt forms under accelerated conditions of heat and humidity
- Format: physicochemical
- Measurement conditions: 25° C./60% RH, 14 D
Answers are plain numbers, in %.

The following molecules have reported results that may help.
molecule=CC[C@H](C(=O)N1CCCC[C@H]1C(=O)O[C@H](CCc1ccc(OC)c(OC)c1)c1cccc(OCCN(C)CCN(C)CCOc2cccc([C@@H](CCc3ccc(OC)c(OC)c3)OC(=O)[C@@H]3CCCCN3C(=O)[C@@H](CC)c3cc(OC)c(OC)c(OC)c3)c2)c1)c1cc(OC)c(OC)c(OC)c1.O=S(=O)(O)c1ccccc1 unit_spec=% recorded_value=91.7
molecule="CC[C@H](C(=O)N1CCCC[C@H]1C(=O)O[C@H](CCc1ccc(OC)c(OC)c1)c1cccc(OCCN(C)CCN(C)CCOc2cccc([C@@H](CCc3ccc(OC)c(OC)c3)OC(=O)[C@@H]3CCCCN3C(=O)[C@@H](CC)c3cc(OC)c(OC)c(OC)c3)c2)c1)c1cc(OC)c(OC)c(OC)c1.O=S(=O)(O)O [Sulphate]" unit_spec=% recorded_value=95.0
molecule="CC[C@H](C(=O)N1CCCC[C@H]1C(=O)O[C@H](CCc1ccc(OC)c(OC)c1)c1cccc(OCCN(C)CCN(C)CCOc2cccc([C@@H](CCc3ccc(OC)c(OC)c3)OC(=O)[C@@H]3CCCCN3C(=O)[C@@H](CC)c3cc(OC)c(OC)c(OC)c3)c2)c1)c1cc(OC)c(OC)c(OC)c1.O=P(O)(O)O [Compound A.1]" unit_spec=% recorded_value=95.9
molecule="CC[C@H](C(=O)N1CCCC[C@H]1C(=O)O[C@H](CCc1ccc(OC)c(OC)c1)c1cccc(OCCN(C)CCN(C)CCOc2cccc([C@@H](CCc3ccc(OC)c(OC)c3)OC(=O)[C@@H]3CCCCN3C(=O)[C@@H](CC)c3cc(OC)c(OC)c(OC)c3)c2)c1)c1cc(OC)c(OC)c(OC)c1.O=C(O)/C=C/C(=O)O [Fumarate]" unit_spec=% recorded_value=97.1

IN: Annotate the molecule CC[C@H](C(=O)N1CCCC[C@H]1C(=O)O[C@H](CCc1ccc(OC)c(OC)c1)c1cccc(OCCN(C)CCN(C)CCOc2cccc([C@@H](CCc3ccc(OC)c(OC)c3)OC(=O)[C@@H]3CCCCN3C(=O)[C@@H](CC)c3cc(OC)c(OC)c(OC)c3)c2)c1)c1cc(OC)c(OC)c(OC)c1.Cl [Compound A.2] with its measured Assay (%).
OUT: 96.7

* * *

- Test: Stability of salt forms under accelerated conditions of heat and humidity
- Assay type: physicochemical
- Measurement conditions: 40° C./75% RH, 7 D
Endpoint: Assay (%)
Numbers only, in %.

Below is a list of compounds. For each, state its recorded Assay (%).
1. CC[C@H](C(=O)N1CCCC[C@H]1C(=O)O[C@H](CCc1ccc(OC)c(OC)c1)c1cccc(OCCN(C)CCN(C)CCOc2cccc([C@@H](CCc3ccc(OC)c(OC)c3)OC(=O)[C@@H]3CCCCN3C(=O)[C@@H](CC)c3cc(OC)c(OC)c(OC)c3)c2)c1)c1cc(OC)c(OC)c(OC)c1.O=P(O)(O)O
2. CC[C@H](C(=O)N1CCCC[C@H]1C(=O)O[C@H](CCc1ccc(OC)c(OC)c1)c1cccc(OCCN(C)CCN(C)CCOc2cccc([C@@H](CCc3ccc(OC)c(OC)c3)OC(=O)[C@@H]3CCCCN3C(=O)[C@@H](CC)c3cc(OC)c(OC)c(OC)c3)c2)c1)c1cc(OC)c(OC)c(OC)c1.O=S(=O)(O)O [Sulphate]
3. CC[C@H](C(=O)N1CCCC[C@H]1C(=O)O[C@H](CCc1ccc(OC)c(OC)c1)c1cccc(OCCN(C)CCN(C)CCOc2cccc([C@@H](CCc3ccc(OC)c(OC)c3)OC(=O)[C@@H]3CCCCN3C(=O)[C@@H](CC)c3cc(OC)c(OC)c(OC)c3)c2)c1)c1cc(OC)c(OC)c(OC)c1.O=S(=O)(O)c1ccccc1

OUT:
[95.6, 95.9, 92.2]

Below is a list of compounds. For each, state its recorded Assay (%).
1. CC[C@H](C(=O)N1CCCC[C@H]1C(=O)O[C@H](CCc1ccc(OC)c(OC)c1)c1cccc(OCCN(C)CCN(C)CCOc2cccc([C@@H](CCc3ccc(OC)c(OC)c3)OC(=O)[C@@H]3CCCCN3C(=O)[C@@H](CC)c3cc(OC)c(OC)c(OC)c3)c2)c1)c1cc(OC)c(OC)c(OC)c1.Cl
2. CC[C@H](C(=O)N1CCCC[C@H]1C(=O)O[C@H](CCc1ccc(OC)c(OC)c1)c1cccc(OCCN(C)CCN(C)CCOc2cccc([C@@H](CCc3ccc(OC)c(OC)c3)OC(=O)[C@@H]3CCCCN3C(=O)[C@@H](CC)c3cc(OC)c(OC)c(OC)c3)c2)c1)c1cc(OC)c(OC)c(OC)c1.O=C(O)/C=C/C(=O)O [Fumarate]

OUT:
1. 97.2
2. 97.2
